Tested on: EBP-Ig (N-terminal 225 amino acids of the human EPO receptor joined to an Ig heavy chain) (Homo sapiens)
Construct: Ig heavy chain (fusion partner); made in house; host or cells: NSO cells (secreted into conditioned media)
Sequence (P19235 25-250 limits assumed): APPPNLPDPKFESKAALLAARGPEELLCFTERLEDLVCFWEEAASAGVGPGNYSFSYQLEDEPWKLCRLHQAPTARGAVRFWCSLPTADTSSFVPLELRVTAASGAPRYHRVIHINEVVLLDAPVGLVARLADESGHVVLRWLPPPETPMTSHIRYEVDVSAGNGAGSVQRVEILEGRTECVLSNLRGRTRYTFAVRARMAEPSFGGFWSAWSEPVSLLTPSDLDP
Protocol text: Inhibition of [125I]EPO binding to immobilized EBP-Ig (EPO binding protein-Ig), scintillation Flash plate competition assay
Conditions used: 50 μM test compound; 0.5 nM [125I]EPO; average % inhibition
Quick rule: % inh @ 50 μM (Inhibition of EPO binding to EBP-Ig) of at least 40% means 1, below that means -1.

Study these solved cases before continuing.
CC(C)(CC(=O)O)CC(=O)NCCCCC(C(=O)NCCCOCCCCOCCCNC(=O)C(CCCCNC(=O)CC(C)(C)CC(=O)O)N(Cc1ccc(OCc2ccccc2)cc1)Cc1ccc(OCc2ccccc2)cc1)N(Cc1ccc(OCc2ccccc2)cc1)Cc1ccc(OCc2ccccc2)cc1 (centres unmarked)
1
COC(=O)C(CCCCN)N(C/C=C/c1cccc([N+](=O)[O-])c1)C/C=C/c1cccc([N+](=O)[O-])c1 (centres unmarked)
1
O=C(O)CCC(=O)NCCCCC(C(=O)NCCCOCCOCCOCCCNC(=O)C(CCCCNC(=O)CCC(=O)O)N(Cc1ccc(OCc2ccccc2)cc1)Cc1ccc(OCc2ccccc2)cc1)N(Cc1ccc(OCc2ccccc2)cc1)Cc1ccc(OCc2ccccc2)cc1 (centres unmarked)
1
COC(=O)C(CCC(=O)O)N(C/C=C/c1cccc(Oc2ccc(Cl)c(Cl)c2)c1)C/C=C/c1cccc(Oc2ccc(Cl)c(Cl)c2)c1 (centres unmarked)
-1

Determine whether this compound has % inh @ 50 μM (Inhibition of EPO binding to EBP-Ig) no lower than 40%: COc1ccc(CCNC(=O)C(CCCCNC(=O)Nc2ccc(Cl)c(Cl)c2)N(C/C=C/c2ccccc2)C/C=C/c2ccccc2)cc1 (centres unmarked)
1
